Where do the numbers come from? From patent US12681018B2.

Reported Fold reduction in nonspecific labeling values are given for each entry in this list.
# EXPERIMENTAL_TARGET: Estrogen Receptor-HaloTag (ER-Halo) fusion (Rhodococcus rhodochrous, UniProt P0A3G2, A155T/A167V/A172T/A224E/C128F/C176G/D78G/E160K/E257K/H272N/K175M/K195N/L47V/L88M/N227D/P291S/S58T/T264A/Y273L/Y87F)
# Construct: expressed in transfected cells; host or cells: U2OS
# Sequence (P03372 whole entry, the tested form may be a part): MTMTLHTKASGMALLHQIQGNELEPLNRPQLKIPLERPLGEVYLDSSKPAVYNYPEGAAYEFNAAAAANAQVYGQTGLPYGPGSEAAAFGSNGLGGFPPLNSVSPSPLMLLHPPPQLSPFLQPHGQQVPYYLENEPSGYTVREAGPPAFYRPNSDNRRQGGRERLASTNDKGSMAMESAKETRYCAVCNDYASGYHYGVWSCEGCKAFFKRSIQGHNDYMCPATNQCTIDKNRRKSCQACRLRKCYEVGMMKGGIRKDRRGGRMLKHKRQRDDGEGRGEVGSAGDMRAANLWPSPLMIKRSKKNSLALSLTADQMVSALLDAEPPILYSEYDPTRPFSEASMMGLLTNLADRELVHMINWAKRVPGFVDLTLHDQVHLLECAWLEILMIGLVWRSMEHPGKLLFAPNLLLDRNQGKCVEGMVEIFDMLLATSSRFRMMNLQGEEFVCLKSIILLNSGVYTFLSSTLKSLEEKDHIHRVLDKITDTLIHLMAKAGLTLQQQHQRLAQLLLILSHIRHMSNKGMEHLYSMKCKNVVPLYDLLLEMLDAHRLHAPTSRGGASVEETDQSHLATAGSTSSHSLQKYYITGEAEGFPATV
# Sequence (P0A3G2 other isoform, or with tags, fused parts or gaps with the stated changes): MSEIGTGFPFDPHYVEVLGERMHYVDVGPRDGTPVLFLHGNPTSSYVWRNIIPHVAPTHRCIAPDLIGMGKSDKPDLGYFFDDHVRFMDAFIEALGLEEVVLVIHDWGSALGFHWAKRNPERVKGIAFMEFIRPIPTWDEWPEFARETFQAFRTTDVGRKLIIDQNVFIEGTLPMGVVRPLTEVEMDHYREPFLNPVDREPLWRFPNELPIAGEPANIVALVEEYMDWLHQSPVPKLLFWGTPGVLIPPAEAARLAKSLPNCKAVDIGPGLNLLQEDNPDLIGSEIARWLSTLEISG
# Assay type: cell-based
# CONDITION_PARAMETERS: Table 4b; tracks in WT U2OS cells, ratio with PA-JF549 in the numerator; 100 nM, 1 hr

# example entries with known answers
INSERT INTO results (smiles_structure, endpoint_name, observed_value) VALUES
  ('CN1CCN(C(=O)C2CN(c3ccc4c(c3)Oc3cc(N5CC(C(=O)N6CCN(C)CC6)C5)ccc3C43C(=[N+]=[N-])C(=O)c4ccc(C(=O)NCCOCCOCCCCCCCl)cc43)C2)CC1', 'Fold reduction in nonspecific labeling', '1-5'),
  ('[N-]=[N+]=C1C(=O)c2ccc(C(=O)NCCOCCOCCCCCCCl)cc2C12c1ccc(N3CC(C(=O)N4CCOCC4)C3)cc1Oc1cc(N3CC(C(=O)N4CCOCC4)C3)ccc12', 'Fold reduction in nonspecific labeling', '>10');

Now for a further molecule.
Field Fold reduction in nonspecific labeling (entry CNC(=O)C1CN(c2ccc3c(c2)Oc2cc(N4CC(C(=O)NC)C4)ccc2C32C(=[N+]=[N-])C(=O)c3ccc(C(=O)NCCOCCOCCCCCCCl)cc32)C1 ) reads >10

====

Reported Fold reduction in nonspecific labeling values are given for each entry in this list.
# EXPERIMENTAL_TARGET: Estrogen Receptor-HaloTag (ER-Halo) fusion (Rhodococcus rhodochrous, UniProt P0A3G2, A155T/A167V/A172T/A224E/C128F/C176G/D78G/E160K/E257K/H272N/K175M/K195N/L47V/L88M/N227D/P291S/S58T/T264A/Y273L/Y87F)
# Construct: expressed in transfected cells; host or cells: U2OS
# Assay type: cell-based
# CONDITION_PARAMETERS: Table 4b; tracks in WT U2OS cells, ratio with PA-JF549 in the numerator; 100 nM, 1 hr
# Method: Using the methods described in Tables 4a and 4b above, labelling specificity of the compound of Examples 1-24 was measured and compared to PA-JF549. […] Labeling specificity, as measured by the fold reduction in nonspecific labeling of WT cells, was calculated by number of tracks measured in WT cells for Examples 1-24 compared to the number of tracks in WT cells for PA-JF549, expressed as the ratio with PA-JF549 in the numerator.

# example entries with known answers
INSERT INTO results (molecule, observed_value) VALUES
  ('[N-]=[N+]=C1C(=O)c2ccc(C(=O)NCCOCCOCCCCCCCl)cc2C12c1ccc(N3CC[C@@H]3CO)cc1Oc1cc(N3CC[C@@H]3CO)ccc12', '5-10'),
  ('CN(CCOCCOCCCCCCCl)C(=O)c1ccc2c(c1)C1(C(=[N+]=[N-])C2=O)c2ccc(N3CCC3)cc2Oc2cc(N3CCC3)ccc21', '5-10'),
  ('COC[C@H]1CCN1c1ccc2c(c1)Oc1cc(N3CC[C@@H]3COC)ccc1C21C(=[N+]=[N-])C(=O)c2ccc(C(=O)NCCOCCOCCCCCCCl)cc21', '1-5');

Field Fold reduction in nonspecific labeling (entry [N-]=[N+]=C1C(=O)c2ccc(CCCCOCCOCCCCCCCl)cc2C12c1ccc(N3CCC3)cc1Oc1cc(N3CCC3)ccc12 ) reads 1-5

Field Fold reduction in nonspecific labeling (entry CN(C)C(=O)C1CN(c2ccc3c(c2)[Si](C)(C)c2cc(N4CC(C(=O)N(C)C)C4)ccc2C32C(=[N+]=[N-])C(=O)c3ccc(C(=O)NCCOCCOCCCCCCCl)cc32)C1 ) reads >10

Field Fold reduction in nonspecific labeling (entry CN(C)C(=O)C1CN(c2ccc3c(c2)Oc2cc(N4CC(C(=O)N(C)C)C4)ccc2C32C(=[N+]=[N-])C(=O)c3ccc(C(=O)NCc4ccc(COc5nc(N)nc6nc[nH]c56)cc4)cc32)C1 ) reads >10

Field Fold reduction in nonspecific labeling (entry CN(C)C(=O)[C@H]1CCN(c2ccc3c(c2)Oc2cc(N4CC[C@H](C(=O)N(C)C)C4)ccc2C32C(=[N+]=[N-])C(=O)c3ccc(C(=O)NCCOCCOCCCCCCCl)cc32)C1 ) reads 5-10

Field Fold reduction in nonspecific labeling (entry [N-]=[N+]=C1C(=O)c2ccc(C(=O)NCCOCCOCCCCCCCl)cc2C12c1ccc(N3CC(C(=O)O)C3)cc1Oc1cc(N3CC(C(=O)O)C3)ccc12 ) reads >10
